Assay: compounds binding Alexa647 anti-His antibody – biochemical, small-molecule microarray, 635 nm fluorescence, artefact control for SMM control protein annotation, primary screen (AID 1128);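 further: score merges feature fluorescence with signal-to-noise for each printed compound spot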
Conditions: higher = more signal
OBSERVABLE: composite z-score

>>> result("CC(C)C(O)C1C=CC2C(=O)N(c3ccccc3)C(=O)C2N1Nc1ccccc1 (stereo not drawn)")
0.331
>>> result("CCOC(=O)C[C@H]1[C@H](OC(=O)Cc2ccc3c(c2)OCO3)[C@@H](NC(=O)c2ccc3ccccc3n2)c2cc(OCCCO)ccc2N1C(=O)c1ccccc1")
-0.0867
>>> result("COc1ccc([Si](C)(C)[C@@H]2[C@@H](CC(=O)N(CCO)Cc3ccccc3)O[C@]3(C(=O)N(Cc4cccc(N5CCCCC5=O)c4)c4ccccc43)[C@H]2C)cc1")
0.112
>>> result("CCOC(=O)C[C@H]1[C@H](OC(=O)c2ccc(C(=O)c3ccccc3)cc2)[C@@H](NC(=O)CC(C)C)c2cc(OCCCO)ccc2N1C(=O)c1ccccc1")
0.152
>>> result("CN(C)c1ccc(C(O)C2C=CC3C(=O)NC(=O)C3N2Nc2ccccn2)cc1 (stereo not drawn)")
0.909
>>> result("CCCC=C(CCC)[C@@H](NC(=O)c1cccs1)c1ccc(C(=O)OC)cc1")
0.196
>>> result("O=C1N(Cc2ccccc2)c2ccccc2C[C@]12N=C(c1ccc(OCCCO)cc1)O[C@@H]2c1ccccc1")
1.1
>>> result("CC(C)C(CO)N1C(=O)[C@@H]2C3C(=O)OCCC/C=C\\[C@H]3OC23C=CCN(Cn2nnc4ccccc42)C(=O)[C@@H]13 (stereo partly drawn)")
2.67

---

Assay: growth effects on S. cerevisiae YJM789 – YJM789 clinical isolate, OD600, 24 h, basal, primary screen (AID 1089);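 further: growth of clinical yeast isolate S. cerevisiae YJM 789 seeded 1000 cells per well; test concentration not given here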
Details: higher = more signal, called active from +8 up or from −8 down
OBSERVABLE: z-score

>>> numeric_result("[N-]=[N+]=Nc1ccccc1C[C@@]1(C(=O)NCCN2CCOCC2)N=C(c2ccc(OCCCO)cc2)O[C@@H]1c1ccccc1N=[N+]=[N-]")
-2.36
>>> numeric_result("C=CCNC(=O)[C@@H]1[C@H]2C(=O)O[C@H](c3ccccc3)[C@H](c3ccccc3)N2[C@H](c2ccccc2OCCO)[C@@]12C(=O)Nc1ccc(C#CCCO)cc12")
1.31
>>> numeric_result("COc1ccc([Si](C)(C)[C@H]2[C@H](CC(=O)N(CCO)Cc3ccccc3)O[C@@]3(C(=O)N(C)c4c(Br)cc(C)cc43)[C@@H]2C)cc1")
-1.62

---

Below, each of the compounds is paired with its reported composite z-score value.
Target: Calmodulin-1 (Homo sapiens) (UniProt P0DP23)
Assay: small molecules binding Ca-loaded calmodulin-1 – biochemical, small-molecule microarray, Cy5-labelled CALM1, plus calcium, artefact control for SMM control-protein annotation, profiling panel (AID 1112);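 further: score merges spot fluorescence with signal to noise from triplicate slides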
Conditions: Cy5-CALM1 binding fluorescence, higher = more signal
OBSERVABLE: composite z-score

>>> result("COc1ccc(CCNC(=O)[C@@]2(Sc3ccc(C)cc3)CC(=O)N(Cc3ccccc3C(F)(F)F)[C@@H]2c2ccc(CO)cc2I)cc1")
0.14
>>> result("COC(=O)C1=CC(CCCO)=CC(c2cccs2)N(C)C=C1C(=O)OC (centres undefined)")
0.618
>>> result("COC(=O)[C@@]1(Cc2ccc(F)cc2)[C@H]2c3cc(C(=O)N(C)C)n(CCc4ccc(OC)c(Br)c4)c3C[C@H]2CN1C(=O)c1ccccc1")
0.535
>>> result("COC(=O)C1(CC(C)C)C=C2C(=C(c3ccccc3)C(=O)C2C)CN1 (centres undefined)")
0.358

src = PubChem BioAssay
